Where these numbers come from: PubChem BioAssay (NCI)

- Tested on: MOLT-4 leukemia
- ASSAY REMARKS: NCI tumour cell line growth inhibition, 48 h; in the data active means GI50 below about 0.43 µM; inactive means the rest
Valid outcomes are listed here; reply with one: active, inactive

>  <COMPOUND>
Cc1cc(=O)[nH]c2c1C(=O)C(=O)C=C2

>  <CLASS LABEL>
inactive

$$$$

Can you look up the reported call for COc1nc(C(Cl)(Cl)Cl)c(Cl)c(OC)c1Cl for me? inactive

Let us now turn to C=CCOc1ccc2c(c1)CC[C@@H]1[C@@H]2CC[C@]2(C)C(=O)/C(=N/O)C[C@@H]12 inactive

* * *

- Tested on: OVCAR-8 ovarian
- ASSAY REMARKS: NCI tumour cell line growth inhibition, 48 h
RECORDED METRIC: TGI

The examples below pair each entry with its known result.
>  <MOLECULE>
CC(=O)Oc1ccc(C2SCc3nc4ccccc4n32)cc1 (stereo unspecified)

>  <RECORDED METRIC>
TGI

>  <TEST VALUE>
> 100 µM

$$$$
>  <MOLECULE>
O=P1(NCCCl)OCCC(OO)N1CCCl (stereo unspecified)

>  <RECORDED METRIC>
TGI

>  <TEST VALUE>
> 100 µM

$$$$
>  <MOLECULE>
Fc1cccc(C2SCc3nc4ccccc4n32)c1 (stereo unspecified)

>  <RECORDED METRIC>
TGI

>  <TEST VALUE>
> 100 µM

$$$$
>  <MOLECULE>
O=C(Nc1ccc(-n2cc(-c3ccncc3)c(-c3ccc(Cl)c(O)c3)n2)cc1)c1ccc(Cl)c(C(F)(F)F)c1

>  <RECORDED METRIC>
TGI

>  <TEST VALUE>
> 46 µM

$$$$
>  <MOLECULE>
O=C1/C=C/[C@@H](O)[C@@H]2C[C@@H](O)C[C@H]2/C=C/CCCCO1

>  <RECORDED METRIC>
TGI

>  <TEST VALUE>
> 100 µM

$$$$

What value of TGI has been reported for the following molecule? COc1ccc2oc(=O)c(-c3nc4ccccc4s3)cc2c1 36.9 µM

Let us now turn to CCc1cc(Cc2cc(CC)cc(C(C)(C)C)c2O)c(O)c(C(C)(C)C)c1 12.3 µM

Let us now turn to CN(Cc1cccc(Cl)c1)c1ccc(CO)c(Cl)c1 53.8 µM

Let us now turn to C[C@@H](Br)[C@@H]1CC[C@H]2c3[nH]c4ccccc4c3CCN2C1 > 100 µM

Let us now turn to OC1/C(=C/c2ccccc2)CNC/C1=C\c1ccccc1 (stereo unspecified) > 100 µM

Let us now turn to O=CC1C(=O)Nc2nc3ccccc3n2C1c1ccccc1 (stereo unspecified) 46.1 µM

* * *

Catalogue of molecules with associated TGI
- System: M19-MEL melanoma
- ASSAY REMARKS: NCI tumour cell line growth inhibition, 48 h

The examples below pair each entry with its known result.
>  <MOLECULE>
Cc1cc2c(C=O)[nH]nc2c(C#N)c1C

>  <TGI>
> 100 µM

$$$$
>  <MOLECULE>
CC(=O)c1ccc(-c2ccc(C(C)=O)s2)s1

>  <TGI>
> 100 µM

$$$$

What value of TGI has been reported for the following molecule? O=C1CCC(=O)C12CCc1ccccc12 > 100 µM

Let us now turn to O=C1OC(/C=C/c2ccccc2)C(=O)C1=O (configuration not stated) > 100 µM

Let us now turn to O=C1C2Cc3ccccc3CN2C(=O)N1CCN1CCOCC1 (configuration not stated) > 100 µM

Let us now turn to NC1=C(O)/C(=N/NS(=O)(=O)c2ccccc2)C(c2cccc(Cl)c2)O1 (configuration not stated) > 57.2 µM

Let us now turn to NCCCSCC(=O)O > 100 µM
